# credit: the supplement of paper PMC10126150

test system: ATP; test: switch fluorescence ratio, 500 uM ATP over buffer (Cy3 cluster intensity, sum of 5 cycles each) (fold (ratio)); higher = stronger signal-on switching upon ATP binding; sequences stand for … in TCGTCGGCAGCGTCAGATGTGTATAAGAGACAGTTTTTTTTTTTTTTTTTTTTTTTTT…TC; details: aptamer strand: ATP DNA aptamer (quencher-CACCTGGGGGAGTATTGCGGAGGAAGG + anchor), 100 nM annealed; ATP concentration: 500 uM;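 also: ATP exposure 15 min at 22 °C before imaging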
Give measured switch fluorescence ratio for each item. Keep answers brief.
Number, no unit, nothing else.

// field: switch fluorescence ratio; key: TTGGTTGTGG ; value = 0.972

Field switch fluorescence ratio (entry AGATTTTGTT ) reads 0.975

For GTTTGGTGAG the sequence record lists switch fluorescence ratio as 1.01

switch fluorescence ratio reading for ATTTACTCGT : 1.01

Entry under test: TTTTAGTAAC . Its switch fluorescence ratio was 1.02

Item: CGACGATTTG | switch fluorescence ratio: 1.01

Memo: TAGGGGTGAT , reported switch fluorescence ratio: 1.02

The recorded switch fluorescence ratio for TTTGGTTACA is 1.01

Entry AGGTGTTCTA ; switch fluorescence ratio = 1.02

According to the records, this sequence GCTCCTGAGG displays switch fluorescence ratio of 1.07

Item: GGGCTTCCGT | switch fluorescence ratio: 1.09

The recorded switch fluorescence ratio for entry CAGTGATTC equals 1.26

sequence CACAAGGGCG , switch fluorescence ratio observed: 0.94

For reference, reported switch fluorescence ratio for ATAGGGCTTG stands at 0.975

For reference, reported switch fluorescence ratio for TGGTGCCCAC stands at 1.01

Value of measured switch fluorescence ratio for the entry TGAAAAAGGG : 1.04

switch fluorescence ratio reading for AGGCCGTATT : 1

Record summary for ACCTGTGAGT : reported switch fluorescence ratio = 0.991

For record GCTCTCGGTA the listed switch fluorescence ratio is 1.03

The sequence listed as CCAGGTTGTT has a reported switch fluorescence ratio of 1.55

Form field switch fluorescence ratio, entry CTTAAATTGT : 1.01

Measured switch fluorescence ratio, TTGTGGATGG : 0.978

// switch fluorescence ratio value for TAGGGGCTTC : 0.979

The sequence identified as TTTCGTGGAC registered its switch fluorescence ratio at 1.08

switch fluorescence ratio in this record for CTTTTGTCGT : 1.01

In plain terms, AGACAAGTGG has a documented switch fluorescence ratio of 0.957

switch fluorescence ratio for CGCTGGATAG is 1.08

The sequence GTACGAGGGA showed switch fluorescence ratio equal to 0.997

Consider TGTTTTACTG . Its measured switch fluorescence ratio is 0.996

Given item TCGTTCGAGG , the value recorded as its switch fluorescence ratio is 0.958

Short answer for AAAACAAAAT : switch fluorescence ratio was 1.05

// sample GGGGAAAGTT , its switch fluorescence ratio was 0.988

get_value(item= TTTTCATTAA , readout=switch fluorescence ratio) returns 0.993

// GCGATGAGAG : switch fluorescence ratio value = 1.03

switch fluorescence ratio reading for TCGAGCACTG : 1.13

Input TTTTTGGGGA . Output switch fluorescence ratio: 1

Short answer for GCAGGAATGG : switch fluorescence ratio was 1.11

Value of switch fluorescence ratio reported for the sequence AATGCATGGG is 0.989

Reported switch fluorescence ratio for AATGGGGGCT was 1.02

Please fill in: switch fluorescence ratio reported for GGTTAGGGAG = 1

The sequence listed as AGTTTTTACC shows switch fluorescence ratio equal to 1.01

Lab note: measured switch fluorescence ratio of CCATTGTGAC was 1.06

Lab note: GGCGGTATAA gave switch fluorescence ratio of 1.01

sequence TCGTTAAACT , switch fluorescence ratio observed: 1.02

sequence AAGTAGGGGC , switch fluorescence ratio observed: 1.02

Short answer for GCCTGTATAG : switch fluorescence ratio was 0.996

Record ATCAGTTGTT . Reported switch fluorescence ratio: 1

What the record says about TGTGTGCGCG : switch fluorescence ratio is 1.02

Recorded result, CAGGGCTGGT , switch fluorescence ratio: 0.976

Quick note, switch fluorescence ratio for GACATTGTGT landed at 0.986

// sample ACGGGGGTGT , its switch fluorescence ratio was 0.984

Note to self: switch fluorescence ratio recorded for CTTATTAGCG was 1.03

Looking up AAGGATTCGC , I see its switch fluorescence ratio listed as 1

sequence CATTTAGGTA , switch fluorescence ratio observed: 1

Short answer for TGGTATGCGG : switch fluorescence ratio was 1.02

Value of measured switch fluorescence ratio for the entry GTTGGCATGG : 1.02

Item: GATAGGTATA | switch fluorescence ratio: 1.01

For CGAAAATATC the sequence record lists switch fluorescence ratio as 0.989

The sequence listed as CTGGAGGACT shows switch fluorescence ratio equal to 1.03

Per the record, AATTTTAACA has switch fluorescence ratio of 1

// GAACTTGCCA : switch fluorescence ratio value = 1.06

So for AGTCCTTAAG , the logged switch fluorescence ratio turned out to be 1

Notebook: TAGGGTACCG , switch fluorescence ratio read as 1.06

Recorded result, AGGCCGGAAT , switch fluorescence ratio: 1.27

get_value(item= AGTAAAGTTG , readout=switch fluorescence ratio) returns 0.991

AGTAAAATGT yielded switch fluorescence ratio of 1

According to the records, this sequence TTGTATGTTT displays switch fluorescence ratio of 0.98

The value of switch fluorescence ratio measured for the sequence GGATTATTTG turned out to be 0.98

So for ACTTCATTTT , the logged switch fluorescence ratio turned out to be 1.02

Recorded result, CGGATTTGAC , switch fluorescence ratio: 1.01

Entry CGGTTTCTGG ; switch fluorescence ratio = 0.986

Memo: CTCTTAGGGG , reported switch fluorescence ratio: 1.12

The recorded switch fluorescence ratio for GAAACAGGAT is 1.02

Sure, the documented switch fluorescence ratio for TTTATCCGGG is 0.99

Lab book: switch fluorescence ratio of CTTCATGGTC noted as 0.96

switch fluorescence ratio for TTTTCTAAGG is 0.989

Form field switch fluorescence ratio, entry GAGAGCTATC : 0.985

response.value for CACTTTGGGG (field: switch fluorescence ratio) = 0.971

In plain terms, GGTTGTGAAG has a documented switch fluorescence ratio of 0.994

switch fluorescence ratio reading for CTGGGGGGCT : 1.02

The recorded switch fluorescence ratio for entry TTAAAAGCGA equals 0.974

The measured switch fluorescence ratio associated with TTGGCGGCTA reads 0.982

// recorded switch fluorescence ratio for TTTTAATCAT : 1.6

Lab note: CGGTGTGTCT gave switch fluorescence ratio of 1.02

The sequence listed as AGCCACGCGT shows switch fluorescence ratio equal to 1.01

The sequence listed as GAGTAAGACA has a reported switch fluorescence ratio of 0.99
